Values were extracted from PubChem BioAssay AID1996.

conditions: buffer; pH 7.4; 200.0 µM
Use satisfied when the recorded solubility kinetic is no lower than 20 µg/mL; use not satisfied when it is lower.

CC(C)(C)c1ccc(N2C(=O)CSC2c2cccnc2)cc1 (centres undefined)
satisfied
O=C(Cn1c(=O)oc2cccnc21)Nc1ccc(C(F)(F)F)cc1
not satisfied
C=C1c2cc3c(cc2NC(=S)N1Cc1ccccc1)OCO3
not satisfied
CC(C)CCN(C(=S)Nc1cccc(F)c1)C(C)c1cccs1 (centres undefined)
not satisfied
Cc1cccc(C(=O)OCC(=O)N2CCN(C(=O)c3ccco3)CC2)c1O
satisfied
Nc1ccc(-c2nc3ncccc3o2)cc1
satisfied

Consider the record given below.
Is it the case that COc1ccc(Cl)cc1NC(=O)CN(C)C(=O)C1COc2ccccc2O1 (centres undefined) has solubility kinetic reaching or exceeding 20 µg/mL?
satisfied
